experiment: in vivo; conditions: mouse, whole blood
Counter-ions that a name gives are not always drawn.
Assay metric: half-life (min)
Report the figure in min without appending any unit label.

q: Reported half-life for CC(C)Cn1cnc2c(N)nc3ccccc3c21 [Micromolecule imiquimod hydrochloride, imiquimod hydrochloride] : what is it?
a: 462

###

assay: in vivo; details: mouse, whole blood
Structures can show the parent of a compound that is named as a salt.
Assay metric: Cmax (ng/mL)
Report the figure in ng/mL without appending any unit label.

q: Reported Cmax for CC(C)Cn1cnc2c(N)nc3ccccc3c21 [Micromolecule imiquimod hydrochloride, imiquimod hydrochloride] : what is it?
a: 17.4

###

experiment: in vivo; conditions: mouse, whole blood
Counter-ions that a name gives are not always drawn.
Assay metric: AUC (ng·h/mL)
Report the figure in ng·h/mL without appending any unit label.

q: Reported AUC for CC(C)Cn1cnc2c(N)nc3ccccc3c21 [Micromolecule imiquimod hydrochloride, imiquimod hydrochloride] : what is it?
a: 140

###

test: in vivo; conditions: mouse, whole blood
Structures can show the parent of a compound that is named as a salt.
Assay metric: Tmax (min)
Report the figure in min without appending any unit label.

q: Reported Tmax for CC(C)Cn1cnc2c(N)nc3ccccc3c21 [Micromolecule imiquimod hydrochloride, imiquimod hydrochloride] : what is it?
a: 30

###

experiment: in vivo; details: mouse, whole blood, 6 mg/kg
Structures can show the parent of a compound that is named as a salt.
Assay metric: half-life (h)
Report the figure in h without appending any unit label.

q: Reported half-life for CC(C)Cn1cnc2c(N)nc3ccccc3c21 [Micromolecule imiquimod hydrochloride, imiquimod hydrochloride] : what is it?
a: 12
